Test system: beggarticks (hairy beggarticks, Bidens pilosa)
TEST_DESCRIPTION: Test F pre-/postemergence: beggarticks
Assay type: in vivo
RUN_CONDITIONS: Preemergence, 16 g ai/ha; scale 0 to 100, 0 no effect, 100 complete control
Text: […] Treated plants and controls were maintained in a greenhouse for 14 to 21 days, after which time all species were compared to controls and visually evaluated. […]
Kindly supply the reported Plant response rating, Beggarticks values for the records listed here.
Numbers only.

# count of solved cases: 4
CCc1nn(-c2ccc(C(F)(F)F)cc2)nc1Oc1ccnc(C(F)(F)F)c1 :: 0
COc1nn(-c2cccc(F)c2)nc1Cc1ccnc(C(F)(F)F)c1 :: 0
Cc1nn(-c2ccc(F)cc2F)nc1Oc1ccnc(C(F)(F)F)c1 :: 0
CCc1nn(-c2ccc(F)c(F)c2)nc1Oc1ccnc(C(F)(F)F)c1 :: 0

Consider the record given below.
Prompt line: # get_value(readout= Plant response rating, Beggarticks, system= beggarticks (hairy beggarticks, Bidens pilosa)) for CCOc1nn(-c2ccc(F)cc2)nc1Cc1ccnc(C(F)(F)F)c1
Response line: 50
